What EC50 was measured for each of the following?
- testTarget: human β2 adrenergic receptor (Homo sapiens)
- Sequence (P07550 whole entry): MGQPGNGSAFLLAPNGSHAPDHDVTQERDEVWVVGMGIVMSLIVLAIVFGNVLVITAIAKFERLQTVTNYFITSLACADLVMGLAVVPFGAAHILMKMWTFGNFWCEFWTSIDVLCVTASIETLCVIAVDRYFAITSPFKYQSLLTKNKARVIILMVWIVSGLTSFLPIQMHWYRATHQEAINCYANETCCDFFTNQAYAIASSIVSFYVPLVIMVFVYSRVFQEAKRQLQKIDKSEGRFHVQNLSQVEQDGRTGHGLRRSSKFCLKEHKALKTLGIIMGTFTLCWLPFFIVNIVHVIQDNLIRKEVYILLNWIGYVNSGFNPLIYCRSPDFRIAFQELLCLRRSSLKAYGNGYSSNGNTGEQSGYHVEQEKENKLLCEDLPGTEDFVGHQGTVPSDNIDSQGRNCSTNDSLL
- testProtocol: Whole-cell cAMP Flashplate assay using CHO-K1 cells stably expressing human β2 adrenergic receptor
- measurementConditions: cAMP production
Structures can show the parent of a compound that is named as a salt.
Express the result in nM but write the number alone.

Q) Requested field: EC50. Item: C[N+]1(C)[C@@H]2CC(OC(=O)Nc3cc(CCC(=O)Nc4ccc(CNC[C@H](O)c5ccc(O)c6[nH]c(=O)ccc56)c(Cl)c4)ccc3-c3ccccc3)C[C@H]1[C@@H]1O[C@@H]12 (stereo partly shown) [Example 45]
A) 4.1

Q) Requested field: EC50. Item: C[N+]1(C)[C@@H]2CC(OC(=O)Nc3ccc(CCCC(=O)Nc4ccc(CNC[C@H](O)c5ccc(O)c6[nH]c(=O)ccc56)cc4)cc3-c3ccccc3)C[C@H]1[C@@H]1O[C@@H]12 (stereo partly shown) [Example 53]
A) 0.6

Q) Requested field: EC50. Item: Cc1cc(CNC[C@H](O)c2ccc(O)c3[nH]c(=O)ccc23)ccc1NC(=O)CCCc1ccc(-c2ccccc2)c(NC(=O)O[C@@H]2C[C@@H]3[C@H]4O[C@H]4[C@H](C2)[N+]3(C)C)c1 [Example 39]
A) 4

Q) Requested field: EC50. Item: COc1cc(CNC[C@H](O)c2ccc(O)c3[nH]c(=O)ccc23)ccc1NC(=O)CCc1ccc(-c2ccccc2)c(NC(=O)OC2CC[N+](C)(C)CC2)c1 [Example 10, trifluoroacetate]
A) 3.9

* * *

What pIC50 was measured for each of the following?
- testTarget: human M3 muscarinic receptor (Homo sapiens, UniProt P20309)
- Construct: expressed in transfected cells; host or cells: CHO-K1
- Sequence (P20309 whole entry): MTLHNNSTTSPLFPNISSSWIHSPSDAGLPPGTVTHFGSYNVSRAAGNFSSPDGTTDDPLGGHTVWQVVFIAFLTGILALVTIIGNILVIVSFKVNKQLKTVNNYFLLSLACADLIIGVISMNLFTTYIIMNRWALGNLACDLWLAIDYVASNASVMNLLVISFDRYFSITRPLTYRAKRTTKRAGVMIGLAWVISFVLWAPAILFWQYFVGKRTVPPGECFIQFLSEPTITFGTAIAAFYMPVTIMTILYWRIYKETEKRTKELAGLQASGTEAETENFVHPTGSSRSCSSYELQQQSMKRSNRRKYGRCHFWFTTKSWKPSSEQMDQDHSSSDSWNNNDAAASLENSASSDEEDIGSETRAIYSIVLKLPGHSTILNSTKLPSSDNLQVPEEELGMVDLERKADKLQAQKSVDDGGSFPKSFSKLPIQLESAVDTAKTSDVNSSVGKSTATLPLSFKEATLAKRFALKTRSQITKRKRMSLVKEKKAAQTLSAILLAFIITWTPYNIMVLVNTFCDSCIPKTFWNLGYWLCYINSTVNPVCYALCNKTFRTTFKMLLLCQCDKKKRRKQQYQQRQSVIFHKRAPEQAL
- testProtocol: Inhibitory effect on methacholine-induced calcium influx, FLIPR assay, CHO-K1 cells stably expressing the human M3 muscarinic receptor
- Type: cell-based
- measurementConditions: inhibition of calcium influx induced by methacholine
Where a name gives a salt, the structure may show the parent alone.
Please keep in mind that pIC50 is minus log10 of the molar concentration; only the number is needed.

Q) Requested field: pIC50. Item: `Cc1cc(CNC[C@H](O)c2ccc(O)c3[nH]c(=O)ccc23)ccc1NC(=O)CCCc1ccc(-c2ccccc2)c(NC(=O)O[C@@H]2C[C@@H]3[C@H]4O[C@H]4[C@H](C2)[N+]3(C)C)c1`
A) 7.80

Q) Requested field: pIC50. Item: COc1cc(NC(=O)CCc2ccc(-c3ccccc3)c(NC(=O)OC3CC[N+](C)(C)CC3)c2)c(Cl)cc1CNC[C@H](O)c1ccc(O)c2[nH]c(=O)ccc12 [Example 2, trifluoroacetate]
A) 7.71

Q) Requested field: pIC50. Item: COc1cc(NC(=O)CCCc2ccc(-c3ccccc3)c(NC(=O)OC3CC[N+](C)(C)CC3)c2)ccc1CNC[C@H](O)c1ccc(O)c2[nH]c(=O)ccc12 [Example 20, trifluoroacetate]
A) 7.77
